Every entry's value here was drawn from ChEMBL document CHEMBL1141492.

# System: Blood
# Experiment Description: Reduction of LPS-induced TNFalpha in human whole blood
# Type: functional, tissue-based
Measured Quantity: IC50 (nM)

Some compounds with known IC50 results, for comparison:
>  <Sample Smiles>
CC(C)c1nc2ccccc2n1Cc1ccc(C(=O)N[C@@H]2CN(C(=O)OC(C)(C)C)C[C@@H]2C(=O)NO)cc1

>  <Reading Unit>
nM

>  <IC50>
70

$$$$
>  <Sample Smiles>
CC(C)(F)c1nc2ccccc2n1Cc1ccc(C(=O)N[C@@H]2CCOC[C@@H]2C(=O)NO)cc1

>  <Reading Unit>
nM

>  <IC50>
153

$$$$

a = Cc1nc2ccccc2n1Cc1ccc(C(=O)N[C@@H]2CN(C(=O)OC(C)(C)C)C[C@@H]2C(=O)NO)cc1
b = C#CCN1C[C@H](C(=O)NO)[C@H](NC(=O)c2ccc(Cn3c(C(C)(C)C)nc4ccccc43)cc2)C1
c = CC(F)(F)c1nc2ccccc2n1Cc1ccc(C(=O)N[C@@H]2CCOC[C@@H]2C(=O)NO)cc1
d = Cc1nc2ccccc2n1Cc1ccc(C(=O)N[C@@H]2CNC[C@@H]2C(=O)NO)cc1
Rank items: key IC50, increasing. Labels, requested order.
d, a, c, b
(d: 56 nM, a: 92 nM, c: 188 nM, b: 317 nM)
